System: Staphylococcus aureus 19C
Assay: broth-dilution microtiter MIC test
Assay type: cell-based
Details: Staphylococcus aureus, 19C
measured property: MIC (µg/mL)
Give bare numbers, in µg/mL.

Field: example entries. Status: answers known.
* CCC1OC(=O)CC(O)C(C)C(OC2OC(C)C(O)C(N(C)C)C2O)C(CC=O)CC(C)C(=O)C=CC(C)=CC1COC1OC(C)C(OC(=O)CC(C)C)C(O)C1OC (stereo not drawn) | 3.12
* CCC1OC(=O)CC(O)C(C)C(OC2OC(C)C(OC3CC(C)(O)C(O)C(C)O3)C(N(C)C)C2OC(C)=O)C(CC=O)CC(C)C(=O)C=CC(C)=CC1COC1OC(C)C(OC(C)=O)C(OC(=O)Cc2ccccc2)C1OC (stereo not drawn) | 3.12

Please look at the following compound next.
QUERY: I am curious: what MIC value has been reported for CCC1OC(=O)CC(O)C(C)C(OC2OC(C)C(O)C(N(C)C)C2OC(C)=O)C(CC=O)CC(C)C(=O)C=CC(C)=CC1COC1OC(C)C(OC(C)=O)C(OC(=O)COc2ccccc2)C1OC (stereo not drawn) ?
RESULT: 1.56

* * *

Test system: Staphylococcus aureus 19C
Experiment: broth-dilution microtiter MIC test
Type: cell-based
Settings: Staphylococcus aureus, 19C
Would you mind telling me the reported MIC of each entry?
Give bare numbers, in µg/mL.

- CCC1OC(=O)CC(O)C(C)C(OC2OC(C)C(O)C(N(C)C)C2O)C(CC=O)CC(C)C(=O)C=CC(C)=CC1COC1OC(C)C(OC(=O)COc2ccccc2)C(OC(=O)COc2ccccc2)C1OC (stereo not shown) [Compound 36, 3",4"-Di-O-phenoxyacetyl-lactenocin]: 1.56
- CCC1OC(=O)CC(O)C(C)C(OC2OC(C)C(O)C(N(C)C)C2O)C(CCOc2ccccc2)CC(C)C(=O)C=CC(C)=CC1COC1OC(C)C=CC1OC (stereo not shown) [Compound 43]: 1.56
- CCC1OC(=O)CC(O)C(C)C(OC2OC(C)C(OC3CC(C)(O)C(O)C(C)O3)C(N(C)C)C2OC(C)=O)C(CC=O)CC(C)C(=O)C=CC(C)=CC1COC1OC(C)C(OC(C)=O)C(OC(=O)COc2ccccc2)C1OC (stereo not shown) [Compound 19]: 6.25

Now for another entry.
QUERY: Suppose we examine the compound CCC1OC(=O)CC(O)C(C)C(OC2OC(C)C(O)C(N(C)C)C2OC(C)=O)C(CC=O)CC(C)C(=O)C=CC(C)=CC1COC1OC(C)C(OC(C)=O)C(OC(C)=O)C1OC (stereo not shown) [Compound 23, 2',3",4"-Tri-O-acetyl-lactenocin] ; what MIC value has been reported?
RESULT: 6.25

* * *

Tested on: Pasteurella multocida 40G
Experiment: broth-dilution microtiter MIC test
Format: cell-based
Conditions: Pasteurella multocida, 40G; broth-dilution microtiter; read-out: MIC
measured property: MIC (µg/mL)
Numbers only, in µg/mL.

QUERY: Given the entry CCC1OC(=O)CC(O)C(C)C(OC2OC(C)C(O)C(N(C)C)C2OC(C)=O)C(CC=O)CC(C)C(=O)C=CC(C)=CC1COC1OC(C)C(OC(=O)COc2ccccc2)C(O)C1OC (centres unmarked) [Compound 33] , report its measured MIC.
RESULT: 12.5

* * *

Record form. Attribute: MIC. Fill in for each entry.
Test system: Bordetella bronchiseptica
Test: broth-dilution microtiter MIC test
Type: cell-based
Conditions: Bordetella bronchiseptica

Batch: MIC for all items listed.
1. CCC1OC(=O)CC(O)C(C)C(OC2OC(C)C(OC3CC(C)(O)C(O)C(C)O3)C(N(C)C)C2OC(C)=O)C(CC=O)CC(C)C(=O)C=CC(C)=CC1COC1OC(C)C(OC(C)=O)C(OC(=O)Cc2ccccc2)C1OC (stereo not drawn)
2. CCC1OC(=O)CC(O)C(C)C(OC2OC(C)C(O)C(N(C)C)C2O)C(CC=O)CC(C)C(=O)C=CC(C)=CC1COC1OC(C)C(OC(=O)Cc2ccccc2)C(O)C1OC (stereo not drawn)

RESULT:
1: > 50 µg/mL; 2: > 50 µg/mL
